assay: in vivo; parameters: species or system mice; details: male, NOD.Cg-Rag1tm1Mom Il2rgtm1Wjl/SzJ (NRG), mouse, iv, total radioactivity, Biodistribution: Z138 Tumor
Where a SMILES comes first, the peptide text is derived from it. Bridges are numbered along the chain shown (N, C = ends). [ ]: non-standard residue; d: D form. The star is where a group is joined. X6 = COc1ccc(CCCC(=O)NCCCC[C@H](NC(=O)[C@H](CS(=O)(=O)O)NC(=O)CN2CCN(CC(=O)O)CCN(CC(=O)O)CCN(CC(=O)O)CC2)C(=O)*)cc1; 2Nal = N[C@@H](Cc1ccc2ccccc2c1)C(=O)O; Lys(iPr) = CC(C)NCCCC[C@H](N)C(=O)O
Value type: tissue uptake at 1 h (%ID/g)
Response body: numeric value in %ID/g, unit text excluded.

## Task Quick check: tissue uptake at 1 h of COc1ccc(CCCC(=O)NCCCC[C@H](NC(=O)[C@H](CS(=O)(=O)O)NC(=O)CN2CCN(CC(=O)O)CCN(CC(=O)O)CCN(CC(=O)O)CC2)C(=O)NCCCC[C@@H]2NC(=O)CC[C@H](C(=O)N[C@@H](CCCCNC(C)C)C(N)=O)NC(=O)[C@@H](C)NC(=O)[C@H](Cc3ccc4ccccc4c3)NC(=O)[C@@H](CCCNC(=N)N)NC(=O)[C@H](CCCCNC(C)C)NC(=O)[C@H](Cc3ccc(O)cc3)NC2=O)cc1 [[^68Ga]Ga-BL34L7, metal not drawn] (K(X6)Y[Lys(iPr)][dR][2Nal][dA][dE][Lys(iPr)]-NH2; lactam N-7) ?
## Result 11.1
